Target: human Nav1.8 (Homo sapiens (Human))
Sequence (Q9Y5Y9 whole entry): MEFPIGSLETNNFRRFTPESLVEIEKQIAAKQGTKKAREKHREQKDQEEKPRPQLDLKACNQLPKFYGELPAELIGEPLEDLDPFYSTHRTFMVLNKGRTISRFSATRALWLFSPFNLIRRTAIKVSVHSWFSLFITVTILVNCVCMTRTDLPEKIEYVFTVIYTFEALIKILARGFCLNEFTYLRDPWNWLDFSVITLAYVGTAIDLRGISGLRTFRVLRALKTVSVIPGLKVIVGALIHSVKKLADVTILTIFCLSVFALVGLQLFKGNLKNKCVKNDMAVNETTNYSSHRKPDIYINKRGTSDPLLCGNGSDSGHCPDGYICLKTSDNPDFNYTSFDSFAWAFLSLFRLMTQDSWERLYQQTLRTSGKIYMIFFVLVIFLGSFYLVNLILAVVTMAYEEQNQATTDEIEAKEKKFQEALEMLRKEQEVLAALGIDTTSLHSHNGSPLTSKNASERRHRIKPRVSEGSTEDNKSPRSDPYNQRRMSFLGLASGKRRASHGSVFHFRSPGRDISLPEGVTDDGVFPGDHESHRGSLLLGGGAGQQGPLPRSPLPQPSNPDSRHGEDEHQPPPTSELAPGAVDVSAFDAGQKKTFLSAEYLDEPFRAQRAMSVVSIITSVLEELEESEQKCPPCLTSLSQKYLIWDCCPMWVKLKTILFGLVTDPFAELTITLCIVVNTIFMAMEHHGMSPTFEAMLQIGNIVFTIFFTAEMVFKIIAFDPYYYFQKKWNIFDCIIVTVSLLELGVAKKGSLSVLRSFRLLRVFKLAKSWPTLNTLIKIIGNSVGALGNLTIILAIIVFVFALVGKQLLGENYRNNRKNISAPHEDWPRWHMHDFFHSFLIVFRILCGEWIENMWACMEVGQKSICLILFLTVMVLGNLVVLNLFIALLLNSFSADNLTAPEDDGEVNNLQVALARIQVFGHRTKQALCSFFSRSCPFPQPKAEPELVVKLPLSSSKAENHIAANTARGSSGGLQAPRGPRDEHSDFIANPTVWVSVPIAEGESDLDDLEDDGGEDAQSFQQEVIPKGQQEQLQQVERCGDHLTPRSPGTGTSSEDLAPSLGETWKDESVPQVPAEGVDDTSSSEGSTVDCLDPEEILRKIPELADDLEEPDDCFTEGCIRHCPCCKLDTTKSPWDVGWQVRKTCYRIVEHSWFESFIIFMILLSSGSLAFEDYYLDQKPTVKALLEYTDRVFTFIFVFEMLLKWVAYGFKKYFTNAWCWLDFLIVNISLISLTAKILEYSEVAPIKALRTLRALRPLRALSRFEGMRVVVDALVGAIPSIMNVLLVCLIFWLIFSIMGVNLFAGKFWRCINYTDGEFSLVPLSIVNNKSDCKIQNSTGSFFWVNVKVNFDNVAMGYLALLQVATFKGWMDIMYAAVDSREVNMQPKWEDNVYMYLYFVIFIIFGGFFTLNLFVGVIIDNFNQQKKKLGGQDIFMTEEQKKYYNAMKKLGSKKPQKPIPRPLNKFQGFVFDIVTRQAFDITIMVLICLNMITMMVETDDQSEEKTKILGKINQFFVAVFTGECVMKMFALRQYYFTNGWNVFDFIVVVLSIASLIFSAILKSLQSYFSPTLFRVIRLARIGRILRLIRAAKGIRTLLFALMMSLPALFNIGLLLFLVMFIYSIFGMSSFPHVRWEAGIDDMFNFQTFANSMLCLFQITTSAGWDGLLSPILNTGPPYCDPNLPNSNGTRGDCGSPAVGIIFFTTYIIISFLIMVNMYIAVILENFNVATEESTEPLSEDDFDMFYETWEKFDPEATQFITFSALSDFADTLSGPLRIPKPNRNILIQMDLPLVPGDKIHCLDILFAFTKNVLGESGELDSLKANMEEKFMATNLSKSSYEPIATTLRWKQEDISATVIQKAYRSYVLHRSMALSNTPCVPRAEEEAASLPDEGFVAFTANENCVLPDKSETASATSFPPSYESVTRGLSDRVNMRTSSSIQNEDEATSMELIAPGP
Method Description: FRET-based membrane potential assay, recombinant human sodium channel Nav1.8
Condition: HEK293 cells stably expressing recombinant human Nav1.8; depolarization with veratridine (EC80) + scorpion venom
Quantity Name: pIC50
One number for each entry, as −log10 of the molar value.

Sample records with pIC50:
Compound	pIC50
O=C(CN1CCN(c2cccc3c2cnn3-c2ccccc2F)C1=O)N1C[C@H]2CC[C@@H](C1)O2	5.81
NC(=O)[C@@H](Cc1ccccc1)NC(=O)CN1CCN(c2cccc3c2cnn3-c2ccccc2F)C1=O	5.75
CCNC(=O)CN1CCN(c2cccc3c2cnn3-c2ccccc2F)C1=O	5.45
O=C(CN1CCN(c2cccc3c2cnn3-c2ccccc2F)C1=O)N1CCCC(C(F)(F)F)C1 (centres unmarked)	5.97
CO[C@H]1C[C@H](NC(=O)CN2CCN(c3cccc4c3cnn4-c3ccccc3F)C2=O)C1	5.28

Please look at the items below and tell me pIC50 for each one, in order.
1. O=C(CN1CCN(c2cccc3c2cnn3-c2ccccc2F)C1=O)N1CCC[C@H](O)C1
2. O=C(CN1CCN(c2cccc3c2cnn3-c2ccccc2F)C1=O)NC1CCOCC1
3. CN(C(=O)CN1CCN(c2cccc3c2cnn3-c2ccccc2F)C1=O)C1CCC1
4. CC(C)(C)CCn1ncc2c(N3CCN(CC(=O)N4CCCC4)C3=O)cccc21
5. O=C1N(CC(=O)N2C[C@H]3C[C@@H]2CO3)CCN1c1cccc2c1cnn2-c1ccccc1F
6. O=C(CN1CCN(c2cccc3c2cnn3-c2ccccc2F)C1=O)NC1CCCC1
7. CCN(CC)C(=O)CN1CCN(c2cccc3c2cnn3-c2ccccc2F)C1=O

Result:
[4.87, 5.00, 5.73, 5.48, 5.07, 6.16, 5.29]

Please look at the items below and tell me pIC50 for each one, in order.
1. O=C(CN1CCN(c2cccc3c2cnn3-c2ccccc2F)C1=O)NC1CCCC1(F)F (centres unmarked)
2. Cc1noc(C(C)N2CCN(c3cccc4c3cnn4-c3ccccc3F)C2=O)n1 (racemic)
3. O=C1N(c2cccc3c2cnn3-c2ccccc2F)CCN1C1CN(S(=O)(=O)CC(F)(F)F)C1
4. CC(C)COC1COCC1N1CCN(c2cccc3c2cnn3-c2ccccc2F)C1=O (centres unmarked)
5. CC(C)CS(=O)(=O)N1CC(N2CCN(c3cccc4c3cnn4-c3ccccc3F)C2=O)C1
6. O=C(CN1CCN(c2cccc3c2cnn3-c2ccc(Cl)cc2)C1=O)N1CC[C@H](F)C1
7. O=C(CCN1CCN(c2cccc3c2cnn3-c2ccccc2F)C1=O)N1CCC[C@H](F)C1

Result:
[5.89, 5.06, 5.92, 6.06, 5.83, 5.58, 5.46]

Please look at the items below and tell me pIC50 for each one, in order.
1. O=C(CN1CCN(c2cccc3c2cnn3-c2ccccc2F)C1=O)N1CCC(F)(F)CC1
2. Cc1nc(CN2CCCN(c3cccc4c3cnn4-c3ccccc3F)C2=O)oc1C
3. O=C1N(c2cccc3c2cnn3-c2ccccc2F)CCN1C1CN(S(=O)(=O)CC2CC2)C1

Result:
6.06
5.94
5.66

Task: Fill in the blank: the reported pIC50 of O=C(CCN1CCN(c2cccc3c2cnn3-c2ccccc2F)C1=O)N1CCC[C@@H](F)C1 is ____.
Result: 5.89

----------
Target: UniProtKB Q15858
Method Description: FRET-based membrane potential assay, recombinant human sodium channel Nav1.7
Condition: HEK293 cells stably expressing recombinant human Nav1.7; depolarization with veratridine (EC80) + scorpion venom
Quantity Name: log10 IC50 (log10 of the value in µM)
Values are log10 of IC50 in µM.

Sample records with log10 IC50:
Compound	log10 IC50
O=C1N(Cc2ncco2)CCN1c1cccc2c1cnn2-c1ccc(F)cc1F	-0.19
O=C(CN1CCN(c2cccc3c2cnn3-c2ccccc2F)C1=O)N1CCC2(C1)OCCO2	0.54

Please look at the items below and tell me log10 IC50 for each one, in order.
1. O=C1CN(C(=O)CN2CCN(c3cccc4c3cnn4-c3ccccc3F)C2=O)CC(=O)N1
2. O=C1N(CC2CCO2)CCN1c1cccc2c1cnn2-c1ccccc1F (centres unmarked)
3. O=C(CN1CCN(c2cccc3c2cnn3-c2ccccc2F)C1=O)N[C@@H]1CCC[C@@H]1O

Result:
1: 0.56; 2: 1.05; 3: 0.71

Please look at the items below and tell me log10 IC50 for each one, in order.
1. CC(C)CCCC(O)CN1CCN(c2cccc3c2cnn3-c2ccccc2F)C1=O (centres unmarked)
2. O=C(CN1CCN(c2cccc3c2cnn3-c2ccccc2F)C1=O)NC1CC(O)C1 (centres unmarked)
3. O=C1N(Cc2ccncc2)CCN1c1cccc2c1cnn2-c1ccccc1F
4. O=C(CN1CCN(c2cccc3c2cnn3-c2ccccc2F)C1=O)N1CCC(C(F)F)C1 (centres unmarked)
5. CC(C)CO[C@H]1CCC[C@H]1NC(=O)CN1CCN(c2cccc3c2cnn3-c2ccccc2F)C1=O
6. Cn1cc2cc(N3CCN(c4cccc5c4cnn5-c4ccccc4F)C3=O)ccc2n1

Result:
[-0.28, 0.96, 0.52, 0.06, 0.35, 0.47]

Please look at the items below and tell me log10 IC50 for each one, in order.
1. CN1CC2CN(C(=O)CN3CCN(c4cccc5c4cnn5-c4ccccc4F)C3=O)CC2C1 (centres unmarked)
2. Cc1cncc(CN2CCCN(c3cccc4c3cnn4-c3ccccc3F)C2=O)n1
3. COC1CN(C(=O)CN2CCN(c3cccc4c3cnn4-c3ccccc3F)C2=O)C1
4. CCOCCNC(=O)CN1CCN(c2cccc3c2cnn3-c2ccccc2F)C1=O
5. O=C1N(c2cccc3c2cnn3-c2ccccc2F)CCN1[C@@H]1CCCC[C@H]1O
6. O=C1N(c2cccc3c2cnn3-c2ccccc2F)CCN1C1CN(C(=O)C2(O)CC2)C1

Result:
1. 0.80
2. 0.53
3. 0.50
4. 0.88
5. 0.69
6. 0.76

----------
I'd appreciate it if you could supply pIC50 values for the items below.
Target: human Nav1.7 (Homo sapiens (Human))
Method Description: FRET-based membrane potential assay, recombinant human sodium channel Nav1.7
Condition: HEK293 cells stably expressing recombinant human Nav1.7; depolarization with veratridine (EC80) + scorpion venom
Give bare numbers, as −log10 of the molar value.

Sample records with pIC50:
Molecule	pIC50
CC(C)(C)OC(=O)CN1CCN(c2cccc3c2cnn3-c2ccccc2F)C1=O	5.50
O=C1N(c2ncccn2)CCN1c1cccc2c1cnn2-c1ccccc1F	6.34
O=C(CN1CCN(c2cccc3c2cnn3-c2ccccc2F)C1=O)N[C@H]1CCC[C@@H]1OCc1ccccc1	5.71

Please find the next molecule below.
Task: Fill in the blank: the reported pIC50 of O=C(CN1CCN(c2cccc3c2cnn3-c2ccccc2F)C1=O)NC1CCC(F)(F)C1 (stereo not shown) is ____.
Result: 5.54

----------
I'd appreciate it if you could supply OA MPE (%) values for the items below.
Tested on: MIA-induced osteoarthritic pain in rats
Method Description: Osteoarthritic (OA) pain induced by sodium monoiodoacetate (MIA), hind limb grip force
Assay type: in vivo, rat
Condition: OA dose 10 mg/kg; male Sprague Dawley rats, grip force 20 days after MIA injection
Answers are plain numbers, in %.

Please look at the items below and tell me OA MPE (%) for each one, in order.
1. O=C1N(c2cccnc2)CCN1c1cccc2c1cnn2-c1ccccc1F
2. O=C1N(Cc2nnco2)CCN1c1cccc2c1cnn2-c1ccccc1F

Result:
[67, 46]

Please look at the items below and tell me OA MPE (%) for each one, in order.
1. Cc1nnc(CN2CCN(c3cccc4c3cnn4-c3ccccc3F)C2=O)s1
2. O=C1N(Cc2cocn2)CCN1c1cccc2c1cnn2-c1ccc(F)cc1F
3. Cc1cnc(N2CCN(c3cccc4c3cnn4-c3ccccc3F)C2=O)nc1
4. O=C1N(Cc2nnc(C3CC3)o2)CCN1c1cccc2c1cnn2-c1ccccc1F
5. Cc1cncc(CN2CCN(c3cccc4c3cnn4-c3ccccc3F)C2=O)n1

Result:
41
35
17
66
35

----------
I'd appreciate it if you could supply IC50 values for the items below.
Target: human Nav1.7 (Homo sapiens (Human), UniProt Q15858)
Sequence (Q15858 whole entry): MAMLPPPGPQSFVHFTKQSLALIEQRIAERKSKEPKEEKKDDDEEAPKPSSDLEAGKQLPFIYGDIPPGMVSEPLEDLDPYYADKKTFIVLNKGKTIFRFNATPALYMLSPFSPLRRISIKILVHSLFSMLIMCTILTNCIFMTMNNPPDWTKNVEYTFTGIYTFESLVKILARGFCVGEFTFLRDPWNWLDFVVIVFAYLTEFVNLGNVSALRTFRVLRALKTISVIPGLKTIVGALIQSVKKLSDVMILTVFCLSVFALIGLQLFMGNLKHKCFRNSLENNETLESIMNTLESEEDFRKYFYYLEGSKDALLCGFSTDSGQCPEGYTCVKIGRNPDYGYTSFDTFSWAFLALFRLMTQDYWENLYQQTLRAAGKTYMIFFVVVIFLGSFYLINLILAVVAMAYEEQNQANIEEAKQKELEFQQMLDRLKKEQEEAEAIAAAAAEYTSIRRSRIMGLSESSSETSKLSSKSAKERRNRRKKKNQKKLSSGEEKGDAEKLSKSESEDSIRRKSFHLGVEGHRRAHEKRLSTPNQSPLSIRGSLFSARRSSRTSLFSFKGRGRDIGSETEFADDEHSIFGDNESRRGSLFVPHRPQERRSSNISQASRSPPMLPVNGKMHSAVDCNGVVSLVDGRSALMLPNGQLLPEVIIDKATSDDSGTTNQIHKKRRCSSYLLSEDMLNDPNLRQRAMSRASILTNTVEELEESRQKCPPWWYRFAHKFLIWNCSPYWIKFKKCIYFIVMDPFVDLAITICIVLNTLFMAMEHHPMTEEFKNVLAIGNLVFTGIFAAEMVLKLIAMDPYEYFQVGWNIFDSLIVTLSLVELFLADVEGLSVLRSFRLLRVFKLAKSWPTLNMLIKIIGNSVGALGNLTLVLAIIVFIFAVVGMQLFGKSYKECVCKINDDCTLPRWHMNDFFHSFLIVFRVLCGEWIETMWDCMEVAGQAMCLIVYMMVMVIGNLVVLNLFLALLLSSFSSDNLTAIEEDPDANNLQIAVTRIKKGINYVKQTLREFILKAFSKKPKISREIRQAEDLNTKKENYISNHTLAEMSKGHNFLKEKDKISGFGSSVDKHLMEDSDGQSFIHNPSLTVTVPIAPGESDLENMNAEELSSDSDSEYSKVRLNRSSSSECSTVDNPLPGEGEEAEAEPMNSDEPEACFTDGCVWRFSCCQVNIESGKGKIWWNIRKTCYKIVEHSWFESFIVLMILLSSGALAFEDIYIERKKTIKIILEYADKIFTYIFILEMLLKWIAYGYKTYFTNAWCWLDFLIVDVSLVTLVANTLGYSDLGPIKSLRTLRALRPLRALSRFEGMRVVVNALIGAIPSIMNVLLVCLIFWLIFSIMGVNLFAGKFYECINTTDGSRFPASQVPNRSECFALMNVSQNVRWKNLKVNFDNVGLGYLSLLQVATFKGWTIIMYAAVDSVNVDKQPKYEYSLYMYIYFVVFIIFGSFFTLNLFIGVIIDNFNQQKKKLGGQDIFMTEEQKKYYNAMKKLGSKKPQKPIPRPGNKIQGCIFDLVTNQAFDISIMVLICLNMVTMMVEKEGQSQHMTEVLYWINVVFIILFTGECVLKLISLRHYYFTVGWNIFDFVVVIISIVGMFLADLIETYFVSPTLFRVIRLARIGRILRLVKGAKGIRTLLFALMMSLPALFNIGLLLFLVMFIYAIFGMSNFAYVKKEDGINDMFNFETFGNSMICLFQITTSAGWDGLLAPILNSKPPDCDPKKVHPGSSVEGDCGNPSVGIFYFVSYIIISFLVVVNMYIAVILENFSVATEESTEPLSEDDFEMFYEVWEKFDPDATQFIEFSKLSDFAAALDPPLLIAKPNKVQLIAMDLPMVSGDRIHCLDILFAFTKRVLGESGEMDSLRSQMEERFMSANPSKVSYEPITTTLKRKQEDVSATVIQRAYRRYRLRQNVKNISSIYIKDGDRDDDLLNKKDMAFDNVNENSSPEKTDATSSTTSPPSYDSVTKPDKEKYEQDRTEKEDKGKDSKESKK
Method Description: FRET-based membrane potential assay, recombinant human sodium channel Nav1.7
Condition: HEK293 cells stably expressing recombinant human Nav1.7; depolarization with veratridine (EC80) + scorpion venom
One number for each entry, in µM.

Sample records with IC50:
Compound	Target	IC50 (µM)
O=C(CN1CCN(c2cccc3c2cnn3-c2ccccc2F)C1=O)N1CC(F)C(F)C1 (centres unmarked)	human Nav1.7 (Homo sapiens (Human), UniProt Q15858)	1.06
Cc1cnc(N2CCN(c3cccc4c3cnn4-c3ccccc3F)C2=O)nc1	human Nav1.7 (Homo sapiens (Human), UniProt Q15858)	0.624
CC(=O)C1CN(C(=O)CN2CCN(c3cccc4c3cnn4-c3ccccc3F)C2=O)C1	human Nav1.7 (Homo sapiens (Human), UniProt Q15858)	3.12
O=C(CN1CCN(c2cccc3c2cnn3-c2cc(Cl)cc(Cl)c2)C1=O)N1CC[C@H](F)C1	human Nav1.7 (Homo sapiens (Human), UniProt Q15858)	13.4

Please look at the items below and tell me IC50 for each one, in order.
1. CN1[C@H]2CC[C@@H]1CN(C(=O)CN1CCN(c3cccc4c3cnn4-c3ccccc3F)C1=O)CC2
2. O=C(CN1CCN(c2cccc3c2cnn3-c2ccccc2F)C1=O)NC1COC1
3. CN(CC1CCOCC1)C(=O)CN1CCN(c2cccc3c2cnn3-c2ccccc2F)C1=O

Result:
[14.3, 5.79, 3.57]

Task: Fill in the blank: the reported IC50 of CC(C)OC(=O)N1CCN(c2cccc3c2cnn3-c2ccccc2F)C1=O is ____.
Result: 0.223
